The reported numbers originate from PubChem BioAssay AID2060903.

Tested on: 377384-186-R-J1-PDC complex spheroid viability
Assay: Anticancer human tumor 377384-186-R-J1-PDC patient-derived pancreatic carcinoma cell line growth inhibition [RAS]
Settings: second compound 0.0949 µM; first compound 0.03 µM; stronger effect = lower value
PARAMETER: viability, T/C

INSERT INTO measurements (compound, recorded_value) VALUES
  ('CC1(C)CCC(Nc2ncc(C(F)(F)F)c(-c3c[nH]c4c(P(C)(C)=O)c(C#N)ccc34)n2)CN1 (centres undefined) + CCn1c(-c2cc(N3CCN(C)CC3)cnc2C(C)OC)c2c3cc(ccc31)-c1csc(n1)CC(NC(=O)C1CC1C)C(=O)N1CCCC(N1)C(=O)OCC(C)(C)C2', '1.95%'),
  ('CCc1c2c(nc3ccc(O)cc13)-c1cc3c(c(=O)n1C2)COC(=O)[C@]3(O)CC + CCn1c(-c2cc(N3CCN(C)CC3)cnc2C(C)OC)c2c3cc(ccc31)-c1csc(n1)CC(NC(=O)C1CC1C)C(=O)N1CCCC(N1)C(=O)OCC(C)(C)C2', '1.65%'),
  ('CCc1c2c(nc3ccc(O)cc13)-c1cc3c(c(=O)n1C2)COC(=O)[C@]3(O)CC + CCn1c(-c2cccnc2C(C)OC)c2c3cc(ccc31)N1CCOC(CC(NC(=O)C(C(C)C)N(C)C(=O)C3(F)CCN(C(=O)C#CC(C)(C)N(C)C)CC3)C(=O)N3CCCC(N3)C(=O)OCC(C)(C)C2)C1', '5.24%');

// next item, viability, T/C requested
## Task Given the compound CC1(C)CCC(Nc2ncc(C(F)(F)F)c(-c3c[nH]c4c(P(C)(C)=O)c(C#N)ccc34)n2)CN1 (centres undefined) + CCn1c(-c2cccnc2C(C)OC)c2c3cc(ccc31)N1CCOC(CC(NC(=O)C(C(C)C)N(C)C(=O)C3(F)CCN(C(=O)C#CC(C)(C)N(C)C)CC3)C(=O)N3CCCC(N3)C(=O)OCC(C)(C)C2)C1 , write its reported viability, T/C.
## Result 19.4%

----------
Test system: 377384-186-R-J1-PDC complex spheroid viability
Assay: Anticancer human tumor 377384-186-R-J1-PDC cell line growth inhibition [RAS];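 note: spheroids exposed to compounds for seven days before readout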
Details: second compound 0.316 µM; first compound 0.316 µM; stronger effect = lower value
Entries whose viability, T/C is below 5% take TRUE; entries at or above 5% take FALSE.

Recorded results for 4 compounds are shown here.
INSERT INTO assay_data (compound, qualitative_label) VALUES
  ('CCC(CC)c1cc(NC2CCC(N)C2)n2nccc2n1 (stereo not given) + C#Cc1c(F)ccc2cc(O)cc(-c3ncc4c(N5CC6CCC(C5)N6)nc(OCC56CCCN5CC(F)C6)nc4c3F)c12', 'TRUE'),
  ('C=CC(=O)Nc1cc(Nc2nccc(-c3cn(C)c4ccccc34)n2)c(OC)cc1N(C)CCN(C)C + C=CC(=O)N1CCN(c2nc(OCC3CCCN3C)nc3c(F)c(-c4nc(N)cc(C)c4C(F)(F)F)c(Cl)cc23)C(C)C1', 'FALSE'),
  ('CCN1CCN(Cc2ccc(Nc3ncc(F)c(-c4cc(F)c5nc(C)n(C(C)C)c5c4)n3)nc2)CC1 + C=CC(=O)N1CCN(c2nc(OCC3CCCN3C)nc3c(F)c(-c4nc(N)cc(C)c4C(F)(F)F)c(Cl)cc23)C(C)C1', 'FALSE'),
  ('Nc1ccn(C2OC(CO)C(O)C2(F)F)c(=O)n1 (stereo not given) + C=CC(=O)N1CCN(c2nc(OCC3CCCN3C)nc3c(F)c(-c4nc(N)cc(C)c4C(F)(F)F)c(Cl)cc23)C(C)C1', 'TRUE');

## Task Item NC1c2ccccc2OC12CCN(c1cnc3c(N4CCCc5ncccc54)n[nH]c3n1)CC2 (stereo not given) + C#Cc1c(F)ccc2cc(O)cc(-c3ncc4c(N5CC6CCC(C5)N6)nc(OCC56CCCN5CC(F)C6)nc4c3F)c12 : viability, T/C beneath 5%, strictly?
## Result TRUE
